Record set: IC50 | Carbonic anhydrase 1 (Homo sapiens) | literature, multiple sources.
Unit µM implied. Number only.

Known results for molecules:
{"molecule": "NS(=O)(=O)c1ccc(N2N=C(c3ccc(F)cc3)CC2c2ccccc2)cc1 (stereo not drawn)", "unit_of_measurement": "µM", "observed_result": 0.493}
{"molecule": "COc1cc(C2=NN(c3ccc(S(N)(=O)=O)cc3)C(c3ccc4c(c3)OCO4)C2)cc(OC)c1OC (stereo not drawn)", "unit_of_measurement": "µM", "observed_result": 29.7}
{"molecule": "COc1ccc(C2=NN(c3ccc(S(N)(=O)=O)cc3)C(c3ccc4c(c3)OCO4)C2)cc1 (stereo not drawn)", "unit_of_measurement": "µM", "observed_result": 11.3}

I'm curious: which IC50 was measured for COc1ccc(C2=NN(c3ccc(S(N)(=O)=O)cc3)C(c3ccc(O)cc3)C2)cc1 (stereo not drawn) tested on Carbonic anhydrase 1 (Homo sapiens)?
0.00484

I'm curious: which IC50 was measured for NS(=O)(=O)c1ccc(N2N=C(c3ccc(Cl)cc3)CC2c2ccccc2)cc1 (stereo not drawn) tested on Carbonic anhydrase 1 (Homo sapiens)?
0.403

I'm curious: which IC50 was measured for COc1ccccc1C1=NN(c2ccc(S(N)(=O)=O)cc2)C(c2ccc3c(c2)OCO3)C1 (stereo not drawn) tested on Carbonic anhydrase 1 (Homo sapiens)?
12.8

* * *

Record set: IC50 | Carbonic anhydrase 1 (Homo sapiens) | literature, multiple sources.
Classify: Fulfilled when IC50 is strictly less than 400 nM; Not fulfilled when IC50 is not.

The following compounds have reported results that may help.
{"compound": "CC(C)c1ccc(C=CC(=O)c2ccc3[nH]c(=O)oc3c2)cc1", "experimental_target": "Carbonic anhydrase 1 (Homo sapiens)", "label_class": "Not fulfilled"}
{"compound": "Cc1ccc(C2=NN(c3ccc(S(N)(=O)=O)cc3)C(c3ccc(O)cc3)C2)cc1 (centres unmarked)", "experimental_target": "Carbonic anhydrase 1 (Homo sapiens)", "label_class": "Fulfilled"}
{"compound": "NS(=O)(=O)c1ccc(N2N=C(c3ccc(Cl)cc3)CC2c2ccc(O)cc2)cc1 (centres unmarked)", "experimental_target": "Carbonic anhydrase 1 (Homo sapiens)", "label_class": "Fulfilled"}
{"compound": "NS(=O)(=O)c1ccc(N2N=C(c3ccccc3)CC2c2ccccc2)cc1 (centres unmarked)", "experimental_target": "Carbonic anhydrase 1 (Homo sapiens)", "label_class": "Not fulfilled"}
{"compound": "O=C(C=Cc1cccc(O)c1)c1ccc2[nH]c(=O)oc2c1", "experimental_target": "Carbonic anhydrase 1 (Homo sapiens)", "label_class": "Not fulfilled"}

hey, is IC50 for COc1ccc(C2=NN(c3ccc(S(N)(=O)=O)cc3)C(c3ccccc3)C2)cc1 (centres unmarked) lower than 400 nM or not?
Not fulfilled

hey, is IC50 for NS(=O)(=O)c1ccc(N2N=C(c3ccc([N+](=O)[O-])cc3)CC2c2ccccc2)cc1 (centres unmarked) lower than 400 nM or not?
Not fulfilled

hey, is IC50 for COc1ccc(OC)c(C2=NN(c3ccc(S(N)(=O)=O)cc3)C(c3ccc4c(c3)OCO4)C2)c1 (centres unmarked) lower than 400 nM or not?
Not fulfilled
